Provide the reported binding signal of each item.
- SYSTEM_UNDER_TEST: T1, Dmp53 (Drosophila melanogaster, UniProt Q9N6D8 1-385)
- T1 sequence: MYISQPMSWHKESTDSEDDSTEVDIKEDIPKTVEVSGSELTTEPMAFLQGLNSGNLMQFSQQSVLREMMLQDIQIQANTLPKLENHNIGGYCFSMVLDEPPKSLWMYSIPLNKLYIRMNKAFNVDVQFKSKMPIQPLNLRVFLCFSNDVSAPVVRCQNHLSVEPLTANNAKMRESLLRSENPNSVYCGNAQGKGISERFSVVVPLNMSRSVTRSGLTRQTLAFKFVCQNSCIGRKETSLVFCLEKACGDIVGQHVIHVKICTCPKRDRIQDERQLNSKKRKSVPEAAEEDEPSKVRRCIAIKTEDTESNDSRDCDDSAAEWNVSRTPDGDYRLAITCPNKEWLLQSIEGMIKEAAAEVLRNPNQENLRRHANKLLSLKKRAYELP
- PROTOCOL_DESCRIPTION: anisotropy competition; 25 mM NaPi, 225 mM NaCl, 10% v/v glycerol, 5 mM DTT, 0.2 mg/mL BSA, 22°C; 20 nM labelled DNA; pH not stated for the binding assay
- CONDITIONS_USED: protein: recombinant; tags: N-terminal 6xHis-lipoyl-TEV tag, cleaved; chain copies: 4

T6C (dsDNA) DNA 1: CGCGGACACGTCCGGACATGTCCCGC DNA 2: GCGGGACATGTCCGGACGTGTCCGCG : 0.25 ΔlogKd vs ref
G7C (dsDNA) DNA 1: CGCGGACATCTCCGGACATGTCCCGC DNA 2: GCGGGACATGTCCGGAGATGTCCGCG : 1.51 ΔlogKd vs ref
A5C (dsDNA) DNA 1: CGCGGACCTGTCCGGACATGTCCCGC DNA 2: GCGGGACATGTCCGGACAGGTCCGCG : 0.54 ΔlogKd vs ref

Kindly consider the entry below.
Input: Request the reported binding signal associated with A3C (dsDNA) DNA 1: CGCGGCCATGTCCGGACATGTCCCGC DNA 2: GCGGGACATGTCCGGACATGGCCGCG
Output: 0.75 ΔlogKd vs ref
